Target: Alpha-2A adrenergic receptor (Homo sapiens)
Sequence (P08913 whole entry): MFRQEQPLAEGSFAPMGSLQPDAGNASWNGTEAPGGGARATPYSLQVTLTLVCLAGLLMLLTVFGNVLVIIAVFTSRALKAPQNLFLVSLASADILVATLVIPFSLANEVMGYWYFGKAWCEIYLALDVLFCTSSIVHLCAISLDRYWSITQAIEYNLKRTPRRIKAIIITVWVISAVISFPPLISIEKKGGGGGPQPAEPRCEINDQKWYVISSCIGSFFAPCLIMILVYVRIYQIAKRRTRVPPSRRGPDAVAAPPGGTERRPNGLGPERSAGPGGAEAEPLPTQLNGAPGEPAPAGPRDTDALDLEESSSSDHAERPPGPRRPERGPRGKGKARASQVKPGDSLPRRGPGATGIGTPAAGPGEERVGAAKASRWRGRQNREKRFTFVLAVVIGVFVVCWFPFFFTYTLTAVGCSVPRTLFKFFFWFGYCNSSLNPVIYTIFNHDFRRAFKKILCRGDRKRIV
Recorded pKi values for a group of compounds are listed next.
Reminder that pKi means the negative base-10 logarithm of the concentration expressed in mol/L.

Here's what some known entries look like.
COc1ccccc1N1CCN(CCCNC(=O)Nc2ccccc2-c2ccc(-c3ccccc3)cc2)CC1; 6.82
COCCOCCOc1ccc(NC(=O)NCCCN2CCN(c3ccccc3OC)CC2)c(-c2ccccc2)c1; 6.39
COc1ccccc1N1CCN(CCCNC(=O)Nc2ccccc2-c2ccccc2)CC1; 7.55

Moving on to the next compound.
pKi recorded for this compound, `COc1ccccc1N1CCN(CCCNC(=O)NCc2ccccc2-c2ccccc2)CC1` , is 6.92

====

Listing of entries alongside the reported pKi.
Sequence of the target: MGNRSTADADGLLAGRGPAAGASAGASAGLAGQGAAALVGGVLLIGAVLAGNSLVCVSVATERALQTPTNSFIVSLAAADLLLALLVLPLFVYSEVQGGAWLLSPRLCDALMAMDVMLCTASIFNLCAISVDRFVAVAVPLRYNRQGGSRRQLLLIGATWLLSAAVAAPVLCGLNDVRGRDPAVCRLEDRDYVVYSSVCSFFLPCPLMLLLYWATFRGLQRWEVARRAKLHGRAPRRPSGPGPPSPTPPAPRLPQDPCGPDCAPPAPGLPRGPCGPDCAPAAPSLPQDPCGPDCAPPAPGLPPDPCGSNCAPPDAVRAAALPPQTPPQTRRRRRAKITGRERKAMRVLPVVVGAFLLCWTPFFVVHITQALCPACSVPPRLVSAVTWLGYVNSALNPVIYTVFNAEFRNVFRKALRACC
Scale: negative log10 of molar concentration, which is what pKi denotes.

Look over these answered cases.
COc1cccc(-c2ccccc2CNC(=O)NCCCN2CCN(c3ccccc3OC)CC2)c1; 7.89
COc1ccccc1N1CCN(CCCNC(=O)NCc2ccccc2-c2ccc(F)cc2)CC1; 8.28
COc1ccccc1N1CCN(CCCNC(=O)NCc2cc(F)ccc2-c2ccccc2)CC1; 8.34
COc1ccccc1N1CCN(CCCNC(=O)Nc2ccc(-c3ccccc3)cc2)CC1; 6.96
COc1ccccc1N1CCN(CCCNC(=O)NCc2ccccc2-c2ccc(C(C)C)cc2)CC1; 7.44
COc1cccc(-c2ccccc2NC(=O)NCCCN2CCN(c3ccccc3OC)CC2)c1; 8.00

We now examine a further molecule.
// recorded pKi for `COc1ccccc1N1CCN(CCCNC(=O)NCc2ccccc2-c2ccc(C)cc2)CC1` : 8.38
